target: human PTH1 receptor (Homo sapiens); assay: In vitro cAMP signal activity in HKRK-B7 cells (LLC-PK1 cells overexpressing the human PTH1 receptor); assay type: cell-based; settings: HKRK-B7 cells; compound at 1×10^−3 M; cAMP produced as percentage of that produced by hPTH(1-34) at 100 nM
Sequence (Q03431 27-593): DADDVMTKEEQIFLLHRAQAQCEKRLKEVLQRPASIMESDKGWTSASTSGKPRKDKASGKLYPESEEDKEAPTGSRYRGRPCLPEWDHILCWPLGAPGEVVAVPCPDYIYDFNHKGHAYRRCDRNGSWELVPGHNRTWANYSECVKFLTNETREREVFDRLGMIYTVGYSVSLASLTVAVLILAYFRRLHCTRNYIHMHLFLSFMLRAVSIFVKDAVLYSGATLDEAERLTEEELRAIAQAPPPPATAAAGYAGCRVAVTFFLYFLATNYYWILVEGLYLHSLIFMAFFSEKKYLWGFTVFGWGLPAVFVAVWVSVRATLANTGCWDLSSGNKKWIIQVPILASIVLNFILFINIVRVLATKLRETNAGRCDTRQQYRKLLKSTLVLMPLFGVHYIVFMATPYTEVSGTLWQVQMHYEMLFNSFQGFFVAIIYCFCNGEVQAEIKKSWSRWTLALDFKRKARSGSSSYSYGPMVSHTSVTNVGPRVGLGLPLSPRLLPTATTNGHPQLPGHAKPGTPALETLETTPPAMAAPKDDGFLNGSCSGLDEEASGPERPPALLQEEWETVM
Reported cAMP production activity (%) is given for each of the following compounds.

>  <compound>
CC(=O)N(CCO)c1cccc(CCS(=O)(=O)N2CCC3(CC2)N=C(c2cccc(OC(F)(F)F)c2)NC3=O)c1C

>  <assayed-target>
human PTH1 receptor (Homo sapiens)

>  <cAMP production activity (%)>
84%

$$$$
>  <compound>
Cc1cc(C2=NC3(CCN(S(=O)(=O)/C=C/c4c(C)cc(C(=O)N5CCC(C)(O)CC5)cc4C)CC3)C(=O)N2)ccc1C(F)(F)F

>  <assayed-target>
human PTH1 receptor (Homo sapiens)

>  <cAMP production activity (%)>
86%

$$$$
>  <compound>
CC(=O)N(CCOCCF)c1ccc(CCS(=O)(=O)N2CCC3(CC2)N=C(C2CCC(CCC(F)(F)F)CC2)NC3=O)c(C)c1 (stereo not drawn)

>  <assayed-target>
human PTH1 receptor (Homo sapiens)

>  <cAMP production activity (%)>
79%

$$$$

Reference source: patent US9169254B2
